src = patent US20240059680A1

Reported EC50 is given for each of the following compounds.
# Test system: Adult Nippostrongylus brasiliensis
# Experiment description: In Vitro Assay 5: Nippostrongylus brasiliensis (NIPOBR), acetylcholine esterase readout
# Format: cell-based
# Experimental context: acetylcholine esterase activity in medium vs negative control, adult worms, read-out: EC50

So, O=C(NN1CCOc2ccccc21)c1sc2c(-c3cc(F)cc(F)c3F)c(F)cnc2c1N1CCOCC1 ? Its EC50 was 0.1 to 1 µg/mL

###

# Tested on: Dirofilaria immitis microfilariae
# Experiment description: In Vitro Assay 3: Dirofilaria immitis microfilariae (DIROIM L1) motility
# Format: cell-based
# Experimental context: 72 h
Reported EC50 is given for each of the following molecules.

{"Smi": "O=C(NN1CCOc2ccccc21)c1sc2c(-c3cc(F)cc(F)c3F)nccc2c1N1CCOCC1", "Recorded result": "0.1 to 1 µg/mL"}

So, O=C(NN1CCOc2ccccc21)c1sc2c(-c3cc(F)cc(F)c3F)c(F)cnc2c1N1CCOCC1 ? Its EC50 was < 0.1 µg/mL

So, CC(C)c1c(C(=O)NN2CCOc3ccccc32)nc2c(-c3cc(F)cc(F)c3F)cccn12 ? Its EC50 was 0.1 to 1 µg/mL

So, O=C(NN1CCOc2ccccc21)c1sc2c(-c3cc(F)cc(F)c3F)ccnc2c1N1CC(F)C1 ? Its EC50 was < 0.1 µg/mL

###

Reported pEC50 is given for each of the following compounds.
# System under test: D. immitis Slo-1 (Dirofilaria immitis)
# Sequence (I0DFK5 1-1119): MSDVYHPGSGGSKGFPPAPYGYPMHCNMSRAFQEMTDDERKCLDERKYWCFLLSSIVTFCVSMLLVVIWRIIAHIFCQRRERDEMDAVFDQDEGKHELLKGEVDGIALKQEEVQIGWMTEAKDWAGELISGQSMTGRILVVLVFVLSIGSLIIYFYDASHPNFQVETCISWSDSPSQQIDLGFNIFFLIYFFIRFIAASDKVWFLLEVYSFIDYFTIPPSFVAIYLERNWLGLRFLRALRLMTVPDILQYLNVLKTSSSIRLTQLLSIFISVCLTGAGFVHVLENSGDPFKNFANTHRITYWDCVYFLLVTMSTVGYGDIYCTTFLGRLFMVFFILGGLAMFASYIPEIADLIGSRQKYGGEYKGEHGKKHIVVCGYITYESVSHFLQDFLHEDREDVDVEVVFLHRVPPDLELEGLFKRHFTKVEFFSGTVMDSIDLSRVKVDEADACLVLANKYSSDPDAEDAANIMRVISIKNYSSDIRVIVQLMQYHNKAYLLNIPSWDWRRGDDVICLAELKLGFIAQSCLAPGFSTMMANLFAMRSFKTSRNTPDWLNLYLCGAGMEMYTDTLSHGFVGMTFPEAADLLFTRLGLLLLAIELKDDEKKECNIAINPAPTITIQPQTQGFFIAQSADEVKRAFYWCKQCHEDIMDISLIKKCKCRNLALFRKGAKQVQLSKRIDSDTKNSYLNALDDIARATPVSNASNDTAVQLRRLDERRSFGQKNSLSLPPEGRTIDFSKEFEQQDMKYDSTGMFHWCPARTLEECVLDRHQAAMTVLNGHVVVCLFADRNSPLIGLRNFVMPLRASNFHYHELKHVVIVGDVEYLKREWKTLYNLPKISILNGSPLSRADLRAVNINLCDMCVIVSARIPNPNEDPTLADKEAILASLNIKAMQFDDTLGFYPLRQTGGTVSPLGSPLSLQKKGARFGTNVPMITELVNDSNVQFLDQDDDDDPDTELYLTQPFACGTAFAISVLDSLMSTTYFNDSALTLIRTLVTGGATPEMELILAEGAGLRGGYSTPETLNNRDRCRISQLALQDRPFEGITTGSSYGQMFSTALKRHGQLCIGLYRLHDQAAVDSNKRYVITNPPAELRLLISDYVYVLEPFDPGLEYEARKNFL
# Experiment description: In Vitro Assay 2: D. immitis Slo-1, membrane potential measurement in recombinant CHO cell line
pEC50: −log10 of the molar value.

{"Smi": "CC(C)c1c(C(=O)NN2CCOc3ccccc32)n(C)c2c(-c3cc(F)cc(F)c3F)cccc12", "pEC50": "< 6.00"}
{"Smi": "CC(C)(O)c1c(C(=O)NN2CCOc3ccccc32)sc2c(-c3cc(F)cc(F)c3F)c(F)cnc12", "pEC50": "> 7.00"}
{"Smi": "O=C(NN1CCOc2ccccc21)c1sc2c(-c3cc(F)cc(F)c3F)ccnc2c1N1CC(F)C1", "pEC50": "< 6.00"}
{"Smi": "O=C(NN1CCOc2ccccc21)c1sc2c(-c3cc(F)cc(F)c3F)nccc2c1N1CCOCC1", "pEC50": "6.00 to 7.00"}
{"Smi": "Cc1nn2c(C(C)C)c(C(=O)NN3CCOc4ccccc43)nnc2c1-c1c(F)cccc1F", "pEC50": "< 6.00"}
{"Smi": "CC(C)c1c(C(=O)NN2CCOc3ccccc32)ccc2c1nnn2-c1cc(F)cc(F)c1F", "pEC50": "< 6.00"}

So, CC(C)c1c(C(=O)NN2CCOc3ccccc32)cnc2c(-c3cc(F)cc(F)c3F)ncn12 ? Its pEC50 was < 6.00

So, Cc1nn2c(C(C)C)c(C(=O)NN3CCOc4ccccc43)cnc2c1-c1c(F)cccc1F ? Its pEC50 was 6.00 to 7.00

So, CC(C)n1c(C(=O)NN2CCOc3ccccc32)nc2c(-c3cc(F)cc(F)c3F)nccc21 ? Its pEC50 was < 6.00

So, CC(C)(O)c1c(C(=O)NN2CCOc3ccccc32)sc2c(-c3cc(F)cc(F)c3F)ccnc12 ? Its pEC50 was > 7.00

So, CC(C)c1c(C(=O)NN2CCOc3ccccc32)cnc2c1nnn2-c1cc(F)cc(F)c1F ? Its pEC50 was < 6.00

So, O=C(NN1CCOc2ccccc21)c1sc2c(-c3cc(F)cc(F)c3F)ccnc2c1N1CCOCC1 ? Its pEC50 was 6.00 to 7.00

So, O=C(NN1CCOc2ccccc21)c1sc2c(-c3cc(F)cc(F)c3F)c(F)cnc2c1N1CC(F)C1 ? Its pEC50 was < 6.00

So, CN(C)c1c(C(=O)NN2CCOc3ccccc32)cnc2c1ccn2-c1cc(F)cc(F)c1F ? Its pEC50 was < 6.00

So, Cc1nn2c(C(C)C)c(C(=O)NN3CCOc4ccccc43)sc2c1-c1cc(F)cc(F)c1F ? Its pEC50 was < 6.00

So, CC(C)c1c(C(=O)NN2CCOc3ccccc32)sc2c(-c3cc(F)cc(F)c3F)nccc12 ? Its pEC50 was 6.00 to 7.00

###

# Tested on: Dirofilaria immitis microfilariae
# Experiment description: In Vitro Assay 3: Dirofilaria immitis microfilariae (DIROIM L1) motility
# Type: cell-based
# Experimental context: 72 h
Reported EC50 is given for each of the following compounds.

As a guide, the following entries are already answered.
{"Compound": "CC(C)c1c(C(=O)NN2CCOc3ccccc32)ccc2c1nnn2-c1cc(F)cc(F)c1F [Example 16.1]", "EC50": "> 1 µg/mL"}
{"Compound": "CC(C)(O)c1c(C(=O)NN2CCOc3ccccc32)sc2c(-c3cc(F)cc(F)c3F)c(F)cnc12 [Example 6.1]", "EC50": "< 0.1 µg/mL"}
{"Compound": "CC(C)c1c(C(=O)NN2CCOc3ccccc32)sc2c(-c3cc(F)cc(F)c3F)cccc12 [Example 1.1]", "EC50": "< 0.1 µg/mL"}
{"Compound": "Cc1nn(-c2cc(F)cc(F)c2F)c2ncc(C(=O)NN3CCOc4ccccc43)c(C(C)C)c12 [Example 10.2]", "EC50": "0.1 to 1 µg/mL"}
{"Compound": "CC(C)c1c(C(=O)NN2CCOc3ccccc32)cnc2c1nnn2-c1cc(F)cc(F)c1F [Example 14.1]", "EC50": "< 0.1 µg/mL"}

# value of EC50, Dirofilaria immitis microfilariae, item Cc1nn2c(C(C)C)c(C(=O)NN3CCOc4ccccc43)sc2c1-c1cc(F)cc(F)c1F [Example 4.1] = 0.1 to 1 µg/mL

# value of EC50, Dirofilaria immitis microfilariae, item Cc1nn2c(C(C)C)c(C(=O)NN3CCOc4ccccc43)nnc2c1-c1c(F)cccc1F [Example 5.1] = < 0.1 µg/mL

# value of EC50, Dirofilaria immitis microfilariae, item CC(C)c1c(C(=O)NN2CCOc3ccccc32)nc2c(-c3cc(F)cc(F)c3F)nccn12 [Example 8.1] = 0.1 to 1 µg/mL

# value of EC50, Dirofilaria immitis microfilariae, item O=C(NN1CCOc2ccccc21)c1sc2c(-c3cc(F)cc(F)c3F)c(F)cnc2c1N1CC(F)C1 [Example 6.2] = < 0.1 µg/mL

# value of EC50, Dirofilaria immitis microfilariae, item CC(C)(O)c1c(C(=O)NN2CCOc3ccccc32)sc2c(-c3cc(F)cc(F)c3F)ccnc12 [Example 6.5] = < 0.1 µg/mL

# value of EC50, Dirofilaria immitis microfilariae, item CC(C)c1c(C(=O)NN2CCOc3ccccc32)sc2c(-c3cc(F)cc(F)c3F)c(F)cnc12 [Example 6.3] = < 0.1 µg/mL

# value of EC50, Dirofilaria immitis microfilariae, item CC(C)n1c(C(=O)NN2CCOc3ccccc32)nc2c(-c3cc(F)cc(F)c3F)cccc21 [Example 13.1] = 0.1 to 1 µg/mL

# value of EC50, Dirofilaria immitis microfilariae, item Cc1nn2c(C(C)(C)O)c(C(=O)NN3CCOc4ccccc43)sc2c1-c1cc(F)cc(F)c1F [Example 4.3] = < 0.1 µg/mL

# value of EC50, Dirofilaria immitis microfilariae, item Cc1nn2c(C(C)C)c(C(=O)NN3CCOc4ccccc43)cnc2c1-c1c(F)cccc1F [Example 3.1] = < 0.1 µg/mL

# value of EC50, Dirofilaria immitis microfilariae, item Cc1nn2c(N3CCOCC3)c(C(=O)NN3CCOc4ccccc43)sc2c1-c1cc(F)cc(F)c1F [Example 4.2] = < 0.1 µg/mL

# value of EC50, Dirofilaria immitis microfilariae, item CC(C)c1c(C(=O)NN2CCOc3ccccc32)cnc2c(-c3cc(F)cc(F)c3F)ncn12 [Example 11.1] = 0.1 to 1 µg/mL

###

# System under test: C. elegans Slo-1a (Caenorhabditis elegans, UniProt Q95V25)
# Sequence (Q95V25 whole entry): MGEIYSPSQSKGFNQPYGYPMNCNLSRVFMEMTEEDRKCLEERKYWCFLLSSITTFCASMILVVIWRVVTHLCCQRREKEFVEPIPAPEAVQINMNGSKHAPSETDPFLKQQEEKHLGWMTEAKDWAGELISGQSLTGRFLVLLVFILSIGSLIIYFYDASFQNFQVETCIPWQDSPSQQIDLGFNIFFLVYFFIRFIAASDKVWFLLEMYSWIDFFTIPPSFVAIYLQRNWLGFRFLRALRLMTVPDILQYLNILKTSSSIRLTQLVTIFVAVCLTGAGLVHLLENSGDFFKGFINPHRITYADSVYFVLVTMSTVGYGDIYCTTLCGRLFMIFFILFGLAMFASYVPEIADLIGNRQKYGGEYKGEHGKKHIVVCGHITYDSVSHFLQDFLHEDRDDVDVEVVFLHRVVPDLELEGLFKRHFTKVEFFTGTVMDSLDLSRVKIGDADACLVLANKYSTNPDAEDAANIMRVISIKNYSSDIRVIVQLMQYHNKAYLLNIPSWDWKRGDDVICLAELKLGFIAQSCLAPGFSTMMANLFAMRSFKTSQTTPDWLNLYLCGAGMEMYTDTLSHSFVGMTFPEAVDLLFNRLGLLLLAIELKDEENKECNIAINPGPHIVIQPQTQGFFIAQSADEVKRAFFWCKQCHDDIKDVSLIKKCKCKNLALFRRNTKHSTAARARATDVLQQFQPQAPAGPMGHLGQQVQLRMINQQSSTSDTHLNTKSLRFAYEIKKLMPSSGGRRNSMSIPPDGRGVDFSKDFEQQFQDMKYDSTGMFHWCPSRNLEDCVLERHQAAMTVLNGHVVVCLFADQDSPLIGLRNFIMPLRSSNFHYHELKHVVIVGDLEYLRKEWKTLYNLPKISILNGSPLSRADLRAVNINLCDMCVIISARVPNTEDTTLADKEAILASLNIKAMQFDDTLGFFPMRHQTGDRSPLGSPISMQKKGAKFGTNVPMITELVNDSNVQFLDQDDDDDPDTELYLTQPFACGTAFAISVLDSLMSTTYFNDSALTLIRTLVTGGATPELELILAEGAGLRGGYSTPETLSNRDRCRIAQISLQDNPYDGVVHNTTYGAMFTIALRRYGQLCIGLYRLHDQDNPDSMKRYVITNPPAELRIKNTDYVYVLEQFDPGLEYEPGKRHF
pEC50: −log10 of the molar value.
Reported pEC50 is given for each of the following compounds.

So, CC(C)n1c(C(=O)NN2CCOc3ccccc32)nc2c(-c3cc(F)cc(F)c3F)cccc21 ? Its pEC50 was 6.00 to 7.00

So, CC(C)c1c(C(=O)NN2CCOc3ccccc32)ccn2c(-c3c(F)ccc(F)c3F)nnc12 ? Its pEC50 was < 6.00

So, CC(C)c1c(C(=O)NN2CCOc3ccccc32)cnc2c1nnn2-c1cc(F)cc(F)c1F ? Its pEC50 was < 6.00

So, Cc1nn2c(N3CCOCC3)c(C(=O)NN3CCOc4ccccc43)sc2c1-c1cc(F)cc(F)c1F ? Its pEC50 was > 7.00

So, Cc1nn2c(C(C)C)c(C(=O)NN3CCOc4ccccc43)cnc2c1-c1c(F)cccc1F ? Its pEC50 was > 7.00

So, CC(C)c1c(C(=O)NN2CCOc3ccccc32)nc2c(-c3cc(F)cc(F)c3F)nccn12 ? Its pEC50 was < 6.00

So, CC(C)c1c(C(=O)NN2CCOc3ccccc32)nc2c(-c3cc(F)cc(F)c3F)cccn12 ? Its pEC50 was < 6.00

So, O=C(NN1CCOc2ccccc21)c1sc2c(-c3cc(F)cc(F)c3F)ccnc2c1N1CC(F)C1 ? Its pEC50 was 6.00 to 7.00

So, CN(C)c1c(C(=O)NN2CCOc3ccccc32)cnc2c1ccn2-c1cc(F)cc(F)c1F ? Its pEC50 was 6.00 to 7.00

So, CC(C)c1c(C(=O)NN2CCOc3ccccc32)sc2c(-c3cc(F)cc(F)c3F)c(F)cnc12 ? Its pEC50 was > 7.00

So, Cc1nn2c(C(C)C)c(C(=O)NN3CCOc4ccccc43)nnc2c1-c1c(F)cccc1F ? Its pEC50 was 6.00 to 7.00

So, CC(C)(O)c1c(C(=O)NN2CCOc3ccccc32)sc2c(-c3cc(F)cc(F)c3F)c(F)cnc12 ? Its pEC50 was > 7.00

So, CC(C)c1c(C(=O)NN2CCOc3ccccc32)sc2c(-c3cc(F)cc(F)c3F)nccc12 ? Its pEC50 was > 7.00

So, CC(C)c1c(C(=O)NN2CCOc3ccccc32)sc2c(-c3cc(F)cc(F)c3F)cccc12 ? Its pEC50 was > 7.00
